testedOn: human recombinant L1196M ALK kinase domain (amino acids 1093-1411) (Homo sapiens, UniProt Q9UM73, L1196M)
Construct: ALK kinase domain (amino acids 1093-1411); made in house
assayDetails: L1196M mutant ALK enzyme assay (microfluidic mobility shift)
Format: biochemical
statedConditions: ATP 60 μM, 0.5 nM enzyme, competitive inhibition fit; read-out: L1196M ALK enzyme assay (Ki)
Rule: measured Ki below 3 nM gets Y; anything equal to or greater than 3 nM gets N.

[in] Take the molecule CC1Oc2nc(cnc2N)-c2c(C#N)nn3c2C(CC3)N(C)C(=O)c2ccc(F)cc21 (stereo not shown) [Example 74] and say whether its Ki is less than 3 nM.
[out] Y

[in] Take the molecule COc1cnc2cc1-c1cnc(N)c(c1)O[C@H](C)c1cc(F)ccc1C(=O)N(C)CC2 [Example 116] and say whether its Ki is less than 3 nM.
[out] N

[in] Take the molecule COc1nn(C)c2c1-c1cnc(N)c(c1)OC(CF)c1cc(F)ccc1C(=O)N(C)C2 (single isomer, unassigned) [Example 86] and say whether its Ki is less than 3 nM.
[out] Y

[in] Take the molecule CC1Cc2cc(cnc2N)-c2c(nn(C)c2C(N)=O)CN(C)C(=O)c2ccc(F)cc21 (stereo not shown) [Example 62] and say whether its Ki is less than 3 nM.
[out] N

[in] Take the molecule CN1Cc2ccc(S(C)(=O)=O)cc2-c2cnc(N)c(c2)OCc2cc(F)ccc2C1=O [Example 5] and say whether its Ki is less than 3 nM.
[out] N

[in] Take the molecule C[C@H]1Oc2cc(cnc2N)-c2c(nn(C)c2C#N)CN(C2CC2)C(=O)c2ccc(F)cc21 [Example 55] and say whether its Ki is less than 3 nM.
[out] Y

[in] Take the molecule COc1nn(C)c2c1-c1cnc(N)c(c1)OC(CF)c1cc(F)ccc1C(=O)N(C)C2 (single isomer, unassigned) [Example 87] and say whether its Ki is less than 3 nM.
[out] N
